Origin of the recorded values: patent US20250163162A1

Reported IFNγ secretion, CD8 T cells, at 100 µM is given for each of the following binders.
- Test System: T1, IL10Rα/IL2Rγ receptor (human) (UniProt Q13651)
- T1 sequence (looked up) 1: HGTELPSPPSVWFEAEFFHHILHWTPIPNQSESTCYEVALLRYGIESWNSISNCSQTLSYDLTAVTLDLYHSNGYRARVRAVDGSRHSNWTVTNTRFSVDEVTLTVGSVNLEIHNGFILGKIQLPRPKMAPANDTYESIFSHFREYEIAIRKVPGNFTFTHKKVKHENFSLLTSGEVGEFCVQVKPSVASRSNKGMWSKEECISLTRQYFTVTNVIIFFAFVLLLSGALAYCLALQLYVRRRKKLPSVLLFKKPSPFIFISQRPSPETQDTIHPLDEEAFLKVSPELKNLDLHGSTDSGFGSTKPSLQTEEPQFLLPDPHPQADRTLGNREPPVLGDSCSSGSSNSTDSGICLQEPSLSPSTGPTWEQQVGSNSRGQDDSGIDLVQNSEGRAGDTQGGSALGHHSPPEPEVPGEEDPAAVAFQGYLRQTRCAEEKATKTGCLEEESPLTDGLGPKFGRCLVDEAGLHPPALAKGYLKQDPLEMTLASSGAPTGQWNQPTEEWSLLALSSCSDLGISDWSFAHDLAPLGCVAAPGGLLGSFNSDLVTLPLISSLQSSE
- T1 sequence (looked up) 2: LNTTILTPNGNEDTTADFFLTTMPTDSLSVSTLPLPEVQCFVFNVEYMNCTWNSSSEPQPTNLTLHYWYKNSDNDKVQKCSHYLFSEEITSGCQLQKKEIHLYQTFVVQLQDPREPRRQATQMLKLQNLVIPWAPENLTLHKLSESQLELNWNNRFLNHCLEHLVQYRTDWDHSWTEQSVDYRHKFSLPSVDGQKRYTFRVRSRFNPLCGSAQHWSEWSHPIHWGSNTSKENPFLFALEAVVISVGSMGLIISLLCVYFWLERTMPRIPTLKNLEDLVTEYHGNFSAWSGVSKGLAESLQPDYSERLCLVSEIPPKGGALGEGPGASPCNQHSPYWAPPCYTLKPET
- Experimental Protocol: cell-based or functional assay
Give the number; pg/mL is assumed, so skip it.

// known answers, use as guide
Any idea what its IFNγ secretion, CD8 T cells, at 100 µM is? The binder is hIL10Ra_VHH14 - hIL2Rg_VHH19, linker GGSGGS, tag his (bispecific antibody, not shown: small tags and cut ends) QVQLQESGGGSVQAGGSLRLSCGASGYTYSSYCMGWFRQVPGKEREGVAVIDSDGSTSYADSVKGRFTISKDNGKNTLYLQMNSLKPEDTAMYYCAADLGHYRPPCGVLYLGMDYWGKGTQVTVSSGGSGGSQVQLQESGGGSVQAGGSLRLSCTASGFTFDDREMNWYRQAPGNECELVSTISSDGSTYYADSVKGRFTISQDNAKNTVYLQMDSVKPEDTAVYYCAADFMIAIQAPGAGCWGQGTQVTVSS
127000

# lookup: IFNγ secretion, CD8 T cells, at 100 µM of hIL10Ra_VHH14 - hIL2Rg_VHH19, linker GGGS, tag his (bispecific antibody, not shown: small tags and cut ends) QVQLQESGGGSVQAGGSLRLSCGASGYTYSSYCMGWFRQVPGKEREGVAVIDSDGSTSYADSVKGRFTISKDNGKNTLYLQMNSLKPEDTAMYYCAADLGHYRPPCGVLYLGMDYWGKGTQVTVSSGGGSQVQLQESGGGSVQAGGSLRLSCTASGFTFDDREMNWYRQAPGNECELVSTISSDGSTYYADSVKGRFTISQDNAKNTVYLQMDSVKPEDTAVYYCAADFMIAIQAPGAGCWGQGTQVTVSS
134000

Give the measured IFNγ secretion, CD8 T cells, at 100 µM of hIL10Ra_VHH14 - hIL2Rg_VHH19, linker GGGSGGGS, tag his (bispecific antibody, not shown: small tags and cut ends) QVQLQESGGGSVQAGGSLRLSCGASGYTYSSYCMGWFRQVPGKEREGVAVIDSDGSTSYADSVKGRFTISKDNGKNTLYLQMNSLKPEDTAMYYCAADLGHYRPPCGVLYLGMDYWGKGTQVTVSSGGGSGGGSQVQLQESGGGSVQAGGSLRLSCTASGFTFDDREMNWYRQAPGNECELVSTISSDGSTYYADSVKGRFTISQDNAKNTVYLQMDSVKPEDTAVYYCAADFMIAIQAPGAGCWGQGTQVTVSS .
120000

# next binder below
Tell me the measured IFNγ secretion, CD8 T cells, at 100 µM of hIL10Ra_VHH14 - hIL2Rg_VHH19, linker GS, tag his (bispecific antibody, not shown: small tags and cut ends) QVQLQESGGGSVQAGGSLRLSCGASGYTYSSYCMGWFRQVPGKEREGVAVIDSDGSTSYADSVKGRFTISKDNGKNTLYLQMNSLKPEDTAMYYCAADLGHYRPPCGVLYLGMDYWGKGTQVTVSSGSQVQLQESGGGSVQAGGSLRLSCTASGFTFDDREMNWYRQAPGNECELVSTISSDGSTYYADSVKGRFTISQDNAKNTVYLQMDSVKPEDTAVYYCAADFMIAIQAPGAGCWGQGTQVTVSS , please.
143000
